- SYSTEM_UNDER_TEST: GST-tagged truncated human mutant G2019S LRRK2 (Homo sapiens, UniProt Q5S007, G2019S)
- Construct: GST-tagged truncated human mutant G2019S LRRK2; purchased Life Technologies Corporation (Carlsbad, CA)
- Sequence (Q5S007 970-2527 G2019S limits assumed): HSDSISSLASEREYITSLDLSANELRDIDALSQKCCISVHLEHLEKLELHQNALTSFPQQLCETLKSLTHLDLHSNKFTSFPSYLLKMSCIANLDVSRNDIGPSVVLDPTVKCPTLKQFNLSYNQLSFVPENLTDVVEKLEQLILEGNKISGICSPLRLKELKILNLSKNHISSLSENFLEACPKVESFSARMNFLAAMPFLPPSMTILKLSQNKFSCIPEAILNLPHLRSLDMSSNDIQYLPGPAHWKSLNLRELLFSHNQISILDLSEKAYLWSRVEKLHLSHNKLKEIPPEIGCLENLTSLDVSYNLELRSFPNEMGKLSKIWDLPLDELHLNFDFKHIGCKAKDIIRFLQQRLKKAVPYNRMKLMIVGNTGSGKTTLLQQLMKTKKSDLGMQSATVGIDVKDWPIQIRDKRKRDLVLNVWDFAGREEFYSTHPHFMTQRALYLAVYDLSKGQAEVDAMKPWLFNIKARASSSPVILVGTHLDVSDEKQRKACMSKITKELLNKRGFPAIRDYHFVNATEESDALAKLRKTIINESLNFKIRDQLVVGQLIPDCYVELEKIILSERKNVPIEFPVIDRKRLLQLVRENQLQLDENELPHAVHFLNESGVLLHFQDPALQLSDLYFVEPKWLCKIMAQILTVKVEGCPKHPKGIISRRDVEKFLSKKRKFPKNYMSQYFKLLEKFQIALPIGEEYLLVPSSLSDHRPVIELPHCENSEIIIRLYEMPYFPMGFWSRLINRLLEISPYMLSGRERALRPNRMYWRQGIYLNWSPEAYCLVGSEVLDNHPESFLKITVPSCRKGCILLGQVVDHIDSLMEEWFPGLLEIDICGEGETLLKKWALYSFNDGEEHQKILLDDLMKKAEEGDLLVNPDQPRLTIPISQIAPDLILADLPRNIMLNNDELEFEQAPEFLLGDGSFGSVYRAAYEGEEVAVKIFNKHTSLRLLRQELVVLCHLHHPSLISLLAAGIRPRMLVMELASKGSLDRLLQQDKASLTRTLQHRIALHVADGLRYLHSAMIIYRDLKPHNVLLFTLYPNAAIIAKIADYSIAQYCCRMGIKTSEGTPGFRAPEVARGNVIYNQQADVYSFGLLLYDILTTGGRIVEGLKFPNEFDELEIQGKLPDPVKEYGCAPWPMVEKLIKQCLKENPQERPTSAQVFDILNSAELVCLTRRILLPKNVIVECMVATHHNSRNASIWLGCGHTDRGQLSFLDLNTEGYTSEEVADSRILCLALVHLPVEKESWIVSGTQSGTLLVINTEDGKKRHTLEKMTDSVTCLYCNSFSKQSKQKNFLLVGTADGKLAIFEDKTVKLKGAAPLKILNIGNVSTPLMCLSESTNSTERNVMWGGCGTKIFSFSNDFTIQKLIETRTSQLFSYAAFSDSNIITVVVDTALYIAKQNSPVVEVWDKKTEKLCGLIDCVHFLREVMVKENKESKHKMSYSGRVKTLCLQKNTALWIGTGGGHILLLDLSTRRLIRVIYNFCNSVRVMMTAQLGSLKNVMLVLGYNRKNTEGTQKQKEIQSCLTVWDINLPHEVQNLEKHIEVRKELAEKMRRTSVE
- ASSAY_NAME: LRRK2 G2019S Km ATP LanthaScreen assay
- Assay type: biochemical
- CONDITION: 134 μM ATP (Km ATP), LRRKtide substrate, mean of several tests, read-out: LRRK2 pIC50 (converted)
METRIC_NAME: IC50 (nM)
Could you give me the number in nM? Just the number is fine.

Examples with their reported IC50 follow.
# COMPOUND, IC50 / nM
records = [
    ("CC1(N2CCN(c3cc4cc(NC(=O)C5CC5)ncc4cc3F)CC2)COCC1O (single isomer, unassigned) [Ex-1.6]", 912),
    ("Cn1ncc(C2CC2C(=O)Nc2cc3cc(N4CCN(C5(C)CCOC5)CC4)c(Cl)cc3cn2)c1C(F)(F)F (single isomer, unassigned) [Ex-10.26]", 525),
    ("N#CC1CCN(c2cc3cc(NC(=O)C4CC4c4cncnc4)ncc3cc2Cl)CC1 (single isomer, unassigned) [Ex-5.18]", 67.6),
    ("Cc1cc2cnc(NC(=O)C3CC3c3ccccn3)cc2cc1N1CCN(C2(C)CCOC2)CC1 (single isomer, unassigned) [Ex-9.17]", 1.29),
    ("CC1(N2CCN(c3cc4cc(NC(=O)C5CC5C5CCOCC5)ncc4cc3Cl)CC2)COCC1F (single isomer, unassigned)", 0.0813),
]

Query: Reported IC50 for GST-tagged truncated human mutant G2019S LRRK2 (Homo sapiens, UniProt Q5S007, G2019S), given CC1(N2CCN(c3cc4cc(NC(=O)C5CC5)ncc4cc3Cl)CC2)COCC1O (single isomer, unassigned) [Ex-1.2] ?
Response: 25.1

Query: Reported IC50 for GST-tagged truncated human mutant G2019S LRRK2 (Homo sapiens, UniProt Q5S007, G2019S), given CCC1C(C(=O)Nc2cc3cc(N4CCN(C5(C)COCC5O)CC4)c(Cl)cc3cn2)C1c1ccn(C)n1 (single isomer, unassigned) ?
Response: 0.0813

Query: Reported IC50 for GST-tagged truncated human mutant G2019S LRRK2 (Homo sapiens, UniProt Q5S007, G2019S), given Cc1cc2cnc(NC(=O)C3C4CCOCC43)cc2cc1N1CCN(C2(C)CCOC2)CC1 (single isomer, unassigned) [Ex-10.48] ?
Response: 17.4

Query: Reported IC50 for GST-tagged truncated human mutant G2019S LRRK2 (Homo sapiens, UniProt Q5S007, G2019S), given CC1(N2CCN(c3cc4cc(NC(=O)C5CCC5c5ccccn5)ncc4cc3Cl)CC2)COCC1O (single isomer, unassigned) [Ex-11.6] ?
Response: 0.132

Query: Reported IC50 for GST-tagged truncated human mutant G2019S LRRK2 (Homo sapiens, UniProt Q5S007, G2019S), given N#CC1(F)CCN(c2cc3cc(NC(=O)C4CC4c4cncnc4)ncc3cc2Cl)CC1 (single isomer, unassigned) [Ex-5.20] ?
Response: 9.12

Query: Reported IC50 for GST-tagged truncated human mutant G2019S LRRK2 (Homo sapiens, UniProt Q5S007, G2019S), given CC1(N2CCN(c3cc4cc(NC(=O)C5CC5c5ccco5)ncc4cc3Cl)CC2)COCC1O (single isomer, unassigned) [Ex-10.30] ?
Response: 0.0813

Query: Reported IC50 for GST-tagged truncated human mutant G2019S LRRK2 (Homo sapiens, UniProt Q5S007, G2019S), given CCC1C(C(=O)Nc2cc3cc(N4CCN(C5(C)COCC5F)CC4)c(Cl)cc3cn2)C1c1ccn(C)n1 (single isomer, unassigned) [Ex-10.51] ?
Response: 0.0813

Query: Reported IC50 for GST-tagged truncated human mutant G2019S LRRK2 (Homo sapiens, UniProt Q5S007, G2019S), given Cc1cc2cnc(NC(=O)C3CCOC(C)(C)C3)cc2cc1N1CCN(C2(C)CCOC2)CC1 (single isomer, unassigned) [Ex-10.43] ?
Response: 19.5
